- experimentSummary: in vivo
- setupConditions: male, Th-MYCN, mouse, tumor, subcutaneous
measureName: concentration at 24 h (µM)
// note: answer is a bare numeric in µM

query: Reported concentration at 24 h for CCCCCCCCCCCCCCCC(=O)NCCCC[C@@H](N)C(=O)NCCCNCCCCNCCCN : what is it?
result: 12.7

* * *

- experimentSummary: clinical
- setupConditions: human, plasma, oral, 400 mg, AUC0-t Mean, Part 1 Cohort 3, 400 mg QD, Cycle 1 Day 14
measureName: AUC(0-t) (ng·h/mL)
// note: answer is a bare numeric in ng·h/mL

query: Sample CCCCCCCCCCCCCCCC(=O)NCCCC[C@@H](N)C(=O)NCCCNCCCCNCCCN — what was its AUC(0-t)?
result: 957

* * *

- experimentSummary: clinical
- setupConditions: human, plasma, oral, AUC0-6 hr Mean, Part 1 Cohort 5, 1800 mg QD, Cycle 1 Day 28, +DFMO 500 mg/day
measureName: AUC(0-t)
A complete answer gives the number followed by the unit.

query: Report AUC(0-t) for CCCCCCCCCCCCCCCC(=O)NCCCC[C@@H](N)C(=O)NCCCNCCCCNCCCN [AMXT 1501, D-lys(palmitoyl)-spermine] please.
result: 1860 ng·h/mL

* * *

- experimentSummary: clinical
- setupConditions: human, plasma, oral, AUC0-6 hr Median, Part 1 Cohort 5, 1800 mg QD, Cycle 1 Day 28, +DFMO 500 mg/day
measureName: AUC(0-t) (ng·h/mL)
Express it in ng·h/mL; write the number only.

query: Given the entry CCCCCCCCCCCCCCCC(=O)NCCCC[C@@H](N)C(=O)NCCCNCCCCNCCCN , report its measured AUC(0-t).
result: 1430

* * *

- experimentSummary: clinical
- setupConditions: human, plasma, oral, 1800 mg, Cmax Median, Part 1 Cohort 5, 1800 mg QD, Cycle 1 Day 1
measureName: Cmax (ng/mL)
Dear colleague, please return just the value in ng/mL, with no unit written.

query: Name the recorded Cmax for CCCCCCCCCCCCCCCC(=O)NCCCC[C@@H](N)C(=O)NCCCNCCCCNCCCN .
result: 374

* * *

- experimentSummary: clinical
- setupConditions: human, plasma, oral, 160 mg, Cmax Median, Part 1 Cohort 2, 160 mg QD, Cycle 1 Day 14
measureName: Cmax (ng/mL)
Return type: number; implicit unit ng/mL.

query: Quick one: Cmax for CCCCCCCCCCCCCCCC(=O)NCCCC[C@@H](N)C(=O)NCCCNCCCCNCCCN [AMXT 1501, D-lys(palmitoyl)-spermine] ?
result: 16.2

* * *

- experimentSummary: clinical
- setupConditions: human, plasma, oral, 400 mg, AUC0-6 hr Mean, Part 1 Cohort 3, 400 mg QD, Cycle 1 Day 14
measureName: AUC(0-t) (ng·h/mL)
Kindly provide the numeric value in ng·h/mL only, without the unit symbol.

query: Quick check: AUC(0-t) of CCCCCCCCCCCCCCCC(=O)NCCCC[C@@H](N)C(=O)NCCCNCCCCNCCCN ?
result: 289

* * *

- experimentSummary: clinical
- setupConditions: human, plasma, oral, AUC0-t Median, Part 1 Cohort 2, 160 mg QD, Cycle 1 Day 28, +DFMO 500 mg/day
measureName: AUC(0-t) (ng·h/mL)
Form entry: value (ng·h/mL) — number only.

query: Please give the measured AUC(0-t) for this compound: CCCCCCCCCCCCCCCC(=O)NCCCC[C@@H](N)C(=O)NCCCNCCCCNCCCN
result: 112

* * *

- experimentSummary: Clinical plasma pharmacokinetics of oral DFMO (NCT03536728)
- Type: in vivo
- setupConditions: human, 500 mg/day split BID, Day 28, n=14
- Description: Clinical Trial Outline. […] All solid tumor types are eligible for the trial. […] DFMO was delivered orally twice daily in gel capsules.
measureName: AUC
Param answer (str): number followed by unit.

query: Record request: AUC value, item NCCCC(N)(C(=O)O)C(F)F (stereo not shown)
result: 11400 ng·h/mL

* * *

- experimentSummary: clinical
- setupConditions: human, plasma, oral, 1200 mg, AUC0-t Median, Part 1 Cohort 4, 1200 mg QD, Cycle 1 Day 1
measureName: AUC(0-t)

query: Return reported AUC(0-t); argument: CCCCCCCCCCCCCCCC(=O)NCCCC[C@@H](N)C(=O)NCCCNCCCCNCCCN
result: 831 ng·h/mL

* * *

- experimentSummary: clinical
- setupConditions: human, plasma, oral, 1800 mg, average Cmax, plasma AMXT 1501, Part 1 Cohort 5, 1,800 mg, repeat dosing Day 14, n=4
measureName: Cmax (ng/mL)
Numbers only; they are read as ng/mL.

query: Looking for the measured Cmax of CCCCCCCCCCCCCCCC(=O)NCCCC[C@@H](N)C(=O)NCCCNCCCCNCCCN , can you help?
result: 794

* * *

- experimentSummary: clinical
- setupConditions: human, plasma, oral, 160 mg, Tmax Median, Part 1 Cohort 2, 160 mg QD, Cycle 1 Day 1
measureName: Tmax (h)
Note: unit h is implicit; provide only the numeric part.

query: Record request: Tmax value, item CCCCCCCCCCCCCCCC(=O)NCCCC[C@@H](N)C(=O)NCCCNCCCCNCCCN
result: 4

* * *

- experimentSummary: clinical
- setupConditions: human, plasma, oral, AUC0-6 hr Median, Part 1 Cohort 3, 400 mg QD, Cycle 1 Day 28, +DFMO 500 mg/day
measureName: AUC(0-t) (ng·h/mL)
# value in ng·h/mL; strip the unit string

query: Quick one: AUC(0-t) for CCCCCCCCCCCCCCCC(=O)NCCCC[C@@H](N)C(=O)NCCCNCCCCNCCCN ?
result: 93.8

* * *

- experimentSummary: clinical
- setupConditions: human, plasma, oral, 160 mg, AUC0-t Median, Part 1 Cohort 2, 160 mg QD, Cycle 1 Day 14
measureName: AUC(0-t) (ng·h/mL)
Numeric answer only, unit ng·h/mL assumed.

query: Look up AUC(0-t) for this compound: CCCCCCCCCCCCCCCC(=O)NCCCC[C@@H](N)C(=O)NCCCNCCCCNCCCN
result: 59.7

* * *

- experimentSummary: clinical
- setupConditions: human, plasma, oral, Tmax Median, Part 1 Cohort 1, 80 mg QD, Cycle 1 Day 28, +DFMO 500 mg/day
measureName: Tmax (h)
Return type: number; implicit unit h.

query: Value lookup for Tmax; key = CCCCCCCCCCCCCCCC(=O)NCCCC[C@@H](N)C(=O)NCCCNCCCCNCCCN [AMXT 1501, D-lys(palmitoyl)-spermine]
result: 6

* * *

- experimentSummary: clinical
- setupConditions: human, plasma, oral, plasma AMXT 1501 Cmax with no DLTs observed, a couple of adult patients
- Protocol: Clinical Trial Outline. […] All solid tumor types are eligible for the trial. […] An expansion cohort was included at the RP2D level to confirm safety and tolerability of the combination. […] Plasma samples were analyzed for AMXT 1501 concentration via a LC/MS^2 procedure (MI-0028-DB-AB; Agilux Laboratories, Worcester, Massachusetts), and the resulting concentration versus time data were used to estimate individual PK parameters using noncompartmental analysis (NCA).
measureName: Cmax

query: Can you share its Cmax? I mean this molecule: CCCCCCCCCCCCCCCC(=O)NCCCC[C@@H](N)C(=O)NCCCNCCCCNCCCN
result: > 1000 ng/mL

* * *

- experimentSummary: clinical
- setupConditions: human, plasma, oral, 80 mg, AUC0-6 hr Median, Part 1 Cohort 1, 80 mg QD, Cycle 1 Day 1
measureName: AUC(0-t) (ng·h/mL)
Give the quantity in ng·h/mL, number only.

query: Look up AUC(0-t) for this compound: CCCCCCCCCCCCCCCC(=O)NCCCC[C@@H](N)C(=O)NCCCNCCCCNCCCN
result: 29.9

* * *

- experimentSummary: MALDI-FTICR imaging quantitation of DFMO in whole-body sections of Th-MYCN mice
- Format: in vivo, mouse
- setupConditions: male, Th-MYCN, mouse, brown fat, sc, 2.5 mg/kg, DFMO in Brown fat, COMBO (1% DFMO + AMXT 1501 2.5 mg/kg SC); mice 284, 286; 96 h
measureName: concentration at 96 h

query: Need concentration at 96 h, item NCCCC(N)(C(=O)O)C(F)F (stereo not shown) [DFMO, difluoromethylornithine]
result: 27500 ng/g

* * *

- experimentSummary: clinical
- setupConditions: human, plasma, oral, 160 mg, AUC0-t Mean, Part 1 Cohort 2, 160 mg QD, Cycle 1 Day 14
measureName: AUC(0-t) (ng·h/mL)
Number in ng·h/mL, nothing else.

query: Fill in the blank: the reported AUC(0-t) of CCCCCCCCCCCCCCCC(=O)NCCCC[C@@H](N)C(=O)NCCCNCCCCNCCCN [AMXT 1501, D-lys(palmitoyl)-spermine] is ____.
result: 105

* * *

- experimentSummary: clinical
- setupConditions: human, plasma, oral, 1200 mg, Cmax Median, Part 1 Cohort 4, 1200 mg QD, Cycle 1 Day 14
measureName: Cmax (ng/mL)
Use ng/mL as the unit, but write only the number.

query: Return reported Cmax; argument: CCCCCCCCCCCCCCCC(=O)NCCCC[C@@H](N)C(=O)NCCCNCCCCNCCCN
result: 227
